read-out: Plasminogen activator inhibitor-1 (PAI1), SERPINE1 (gene 5054); experiment: BSK_BE3C_PAI1: BioMAP Diversity Plus: BE3C Assay for Plasminogen activator inhibitor-1 (PAI1) Biomarker Activity (AID 2283037); conditions: primary human bronchial epithelial cells; actives raise or lower the signal
Active and inactive are the calls of the source. Rule for the calls: active = hit-call score of the fitted dose curve at least 0.9, where 1 is the maximum; inactive = score below 0.9.
Answer with one of the outcomes given here: active, inactive

Q: I would be grateful if you could indicate the recorded call for CCCCCCCCCCCCO .
Ans: inactive

Q: Lab log entry: CCCCOC(=O)CC(CC(=O)OCCCC)(OC(C)=O)C(=O)OCCCC — outcome as called in the assay?
Ans: inactive

Q: What did the test return for OCCO ?
Ans: inactive

Q: Record request — test call for C[C@]12CC[C@@H]3c4ccc(O)cc4CC[C@H]3[C@@H]1CC[C@H]2O
Ans: inactive

---

test: ATG_XTT_Cytotoxicity: Cytotoxicity Assessment in the Attagene TRANS-FACTORIAL HepG2 Assay (AID 2283584)
Records with an inconclusive call do not appear. Calls of active or inactive are those of the source. How the source made its calls: active means hit-call score of the fitted dose curve at least 0.9, where 1 is the maximum; inconclusive means response in the unintended direction; inactive means score below 0.9.
Returns: one label drawn from 1 for active, 0 for inactive

Known results for compounds:
SMILES_REPR	CLASS_LABEL
O=CCCCC=O	0
CO[C@H]1/C=C/O[C@@]2(C)Oc3c(C)c(O)c4c(O)c(c(/C=N/N5CCN(C)CC5)c(O)c4c3C2=O)NC(=O)/C(C)=C\C=C\[C@H](C)[C@H](O)[C@@H](C)[C@@H](O)[C@@H](C)[C@H](OC(C)=O)[C@@H]1C	0
O=c1c(-c2ccc(O)cc2)coc2cc(O)cc(O)c12	0

Q: Please let me know the test result on file for CN(C)c1ccc(C(=C2C=CC(=[N+](C)C)C=C2)c2ccc(N(C)C)cc2)cc1 .
Ans: 1

Q: // return assay outcome for CCCCCc1ccc(N)cc1
Ans: 0

Q: # outcome recorded in this test, key = c1ccc2ccccc2c1
Ans: 0

Q: GET /call?item= O=C1c2ccccc2C(=O)N1CCc1noc(-c2ccc(CN3CCCCCC3)s2)n1 returns the recorded outcome of this test.
Ans: 0

Q: Look up the recorded call for Clc1ccccc1C(c1ccccc1)(c1ccccc1)n1ccnc1 in this test.
Ans: 1

Q: What call does the record list for Cc1oc2c(NC(=O)c3c(Cl)cccc3Cl)cccc2c1C(C)(C)O ?
Ans: 0

Q: How did this test come out for CCCCCCCCOc1ccc(C(=O)c2ccccc2)c(O)c1 ?
Ans: 0

Q: Tell me the recorded outcome of this test for Cc1ccc(C(C)C)cc1 .
Ans: 0

Q: Tell me the assay call for O=C(Nc1ccc(Cl)cc1)Nc1ccc(Cl)c(Cl)c1 please.
Ans: 0

Q: Record lookup: outcome of this test for COc1cc(C(=O)NC2CCN(C)CC2)ccc1Nc1ncc2c(n1)N(C1CCCC1)CC(F)(F)C(=O)N2C ?
Ans: 0

Q: Kindly provide the recorded test outcome for the following compound: CCO[Si](CCCNC(N)=O)(OCC)OCC
Ans: 0

---

read-out: Tissue plasminogen activator (tPA), PLAT (gene 5327); experiment: BSK_BE3C_tPA: BioMAP Diversity Plus: BE3C Assay for Tissue plasminogen activator (tPA) Biomarker Activity (AID 2283041); details: primary human bronchial epithelial cells; actives raise or lower the signal;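 for outcome: tPA level quantified by ELISA one day after compound addition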
Activity calls are given as the source filed them. Rule for the calls: active = hit-call score of the fitted dose curve at least 0.9, where 1 is the maximum; inactive = score below 0.9.
Choose one outcome from this list and give only that: active, inactive

Consider the worked cases shown below.
> print(dat)
                                 smiles.repr  class.label
 1                          CCCCCc1ccc(N)cc1     inactive
 2  CC(C)(O)c1ccc(CNC(=O)c2cccnc2Oc2ccc3nonc3c2)cc1     inactive
 3                                 O=CCCCC=O     inactive
 4  O=C(O)c1ccccc1-n1cc(C(=O)O)c(=O)c2cc(Nc3c(F)cc(F)cc3Cl)c(Cl)cc21     inactive
 5                          Cc1ccc(C(C)C)cc1     inactive
 6  C[C@]12CC[C@@H]3c4ccc(O)cc4CC[C@H]3[C@@H]1CCC2=O     inactive
 7  CC(C)(C)c1csc(-c2cc3cc(OCc4ccccc4CC(=O)O)ccc3o2)n1       active
 8  NC(=O)c1nc(-c2cccc(-c3cc(F)ccc3OCC(F)(F)C(F)(F)F)c2)n[nH]1       active
 9        O=C(OCCCCCCOC(=O)c1ccccc1)c1ccccc1     inactive
10                                 Oc1ccccc1     inactive

Q: Call for entry O=C(O)Cn1c(=O)n(Cc2ccc(Br)cc2F)c(=O)c2ccc(Cl)cc21 :
Ans: active

Q: Per the assay record, what outcome was assigned to CCCCCCCCOC(=O)c1cc(O)c(O)c(O)c1 ?
Ans: active

Q: How was Cc1cc2c(cc1C(F)(F)F)N(C(=O)Nc1ccc(Oc3cccnc3C)nc1)CC2 classified in this test?
Ans: inactive

Q: Recorded call for CCCCCCCC[Si](OCC)(OCC)OCC ?
Ans: inactive

Q: Tell me the assay call for O=C1CCC(C2CCCCC2)CC1 please.
Ans: inactive

Q: Can you look up the reported call for CC/C(=C(/CC)c1ccc(O)cc1)c1ccc(O)cc1 for me?
Ans: active

Q: Record request — test call for O=c1[nH]sc2ccccc12
Ans: active

---

test: CCTE_Simmons_MITO_max_resp_rate: CCTE's HepG2 Seahorse XF Respirometric Screening Assay at Maximal Respiratory State [uncoupled], Simmons Lab (AID 2284002); conditions: actives raise or lower the signal
Calls of active or inactive are those of the source. The calls were made as follows: active = hit-call score of the fitted dose curve at least 0.9, where 1 is the maximum; inactive = score below 0.9.
Just give me one of these, please: y for active, n for inactive

> print(dat)
                                smiles.repr  class.label
1    O=C(O)Cc1cc(I)c(Oc2ccc(O)c(I)c2)c(I)c1            y
2  CC(C)(C)c1csc(-c2cc3cc(OCc4ccccc4CC(=O)O)ccc3o2)n1            y
3  CN(C)C(=O)C1(N2CCCCC2)CCN(CC[C@@]2(c3ccc(Cl)c(Cl)c3)CN(C(=O)c3ccccc3)CCO2)CC1            n
4  CC1(C)NC(=O)N(c2ccc([N+](=O)[O-])c(C(F)(F)F)c2)C1=O            y
5  C[C@]12CC[C@@H]3c4ccc(O)cc4CC[C@H]3[C@@H]1CC[C@H]2O            n

Q: Kindly provide the recorded test outcome for the following compound: Cc1cc(F)ccc1-c1cc(N2CC[C@@H](O)[C@H]2CO)ncc1N(C)C(=O)C(C)(C)c1cc(C(F)(F)F)cc(C(F)(F)F)c1
Ans: y

Q: Query: recorded result category for CC(C)(O)c1ccc(CNC(=O)c2cccnc2Oc2ccc3nonc3c2)cc1 in this test
Ans: n

Q: I would be grateful if you could indicate the recorded call for NC(=O)c1nc(-c2cccc(-c3cc(F)ccc3OCC(F)(F)C(F)(F)F)c2)n[nH]1 .
Ans: y

Q: Write down the call the test reported for this compound. Item: CCN(Cc1cccnc1)C(=O)c1cccc(Cl)c1[C@]1(C)C(=O)N(Cc2ccc(OC)cc2OC)c2ccc(Cl)cc21
Ans: y

---

target: Collagenase 3 (Homo sapiens) (UniProt P45452); assay: NVS_ENZ_hMMP13: NovaScreen (NVS) Enzymatic Assay for human Matrix Metalloproteinase-13 (MMP13) (AID 2283182)
Inconclusive results are not listed. Active and inactive are the calls of the source. The calls were made as follows: active = hit-call score of the fitted dose curve at least 0.9, where 1 is the maximum; inconclusive = response in the unintended direction; inactive = score below 0.9.
Your answer must be one of the following: active, inactive

Answered cases to consult:
> print(dat)
                                smiles.repr  class.label
1  CCN(Cc1cccnc1)C(=O)c1cccc(Cl)c1[C@]1(C)C(=O)N(Cc2ccc(OC)cc2OC)c2ccc(Cl)cc21       active
2           CCCCCCCCOC(=O)c1cc(O)c(O)c(O)c1       active
3  NCc1cccc(C2CCN(C(=O)c3ccc(C#Cc4ccccc4F)o3)CC2)c1       active

Q: // outcome(item) with item = Cc1c2ccccc2c(C)c2c1ccc1ccccc12
Ans: inactive

Q: Call for entry CCCCOC(=O)c1ccc(O)cc1 :
Ans: active

---

test: BSK_3C_SRB: Viability Assessment in the BioMAP Diversity Plus: 3C Assay (AID 2283023); conditions: primary human endothelial cells (HUVEC);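 note: cells read 24 h after compound dosing; fitted both ways against DMSO so a hit may be signal rise or drop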
Calls of active or inactive are those of the source. How the source made its calls: active means hit-call score of the fitted dose curve at least 0.9, where 1 is the maximum; inactive means score below 0.9.
Valid outcomes are listed here; reply with one: 1.0 = active, 0.0 = inactive

> print(dat)
                                smiles.repr  class.label
1  CCN(Cc1cccc(S(=O)(=O)O)c1)c1ccc(C(=C2C=CC(=[N+](CC)Cc3cccc(S(=O)(=O)O)c3)C=C2)c2ccccc2S(=O)(=O)[O-])cc1          0.0
2  CN(C[C@@H](CC[N+]12CCC(C3CCCCC3)(CC1)CC2)c1ccc(Cl)c(Cl)c1)C(=O)c1cc(C(F)(F)F)cc(C(F)(F)F)c1          1.0
3  COc1cccc([C@H](O)C2CCN(CCc3ccc(F)cc3)CC2)c1OC          0.0
4  CN(C)c1ccc(C(=C2C=CC(=[N+](C)C)C=C2)c2ccc(N(C)C)cc2)cc1          1.0
5                      CCCCCCCCN(C)CCCCCCCC          0.0

Q: Hi team, can someone confirm the assay call for Cc1cc(F)ccc1-c1cc(N2CC[C@@H](O)[C@H]2CO)ncc1N(C)C(=O)C(C)(C)c1cc(C(F)(F)F)cc(C(F)(F)F)c1 ?
Ans: 1.0

Q: Per the records of this test, what outcome belongs to CCCCCCCCCCCCO ?
Ans: 1.0

Q: // outcome(item) with item = CC1=CC(=O)/C(=C(/C)O)C(=O)O1
Ans: 0.0

Q: Recorded test call requested for O=C(O)Cn1c(=O)n(Cc2ccc(Br)cc2F)c(=O)c2ccc(Cl)cc21
Ans: 0.0

Q: Please let me know the test result on file for O=c1ccc2ccccc2o1 .
Ans: 0.0

Q: What is the recorded call for this compound in the test? CN(C)C(=O)C1(N2CCCCC2)CCN(CC[C@@]2(c3ccc(Cl)c(Cl)c3)CN(C(=O)c3ccccc3)CCO2)CC1
Ans: 1.0

Q: Could you please tell me the result logged for CCOC(=O)O[C@H](C)OC(=O)c1ccc2c(c1)cc(C(=O)NC1CCN(C(C)C)CC1)n2Cc1cc(-c2ccc(Cl)s2)on1 in this assay?
Ans: 1.0

Q: Test call, this compound: O=c1c(-c2ccc(O)cc2)coc2cc(O)cc(O)c12
Ans: 1.0

Q: Dear colleague, could you share the recorded outcome for CCCCCc1ccc(N)cc1 when you have a moment?
Ans: 1.0

Q: Please share the test call associated with CC(C)(C)c1cc(/C=C2\SC(N)=NC2=O)cc(C(C)(C)C)c1O .
Ans: 1.0

Q: Assay outcome for C[C@]12CC[C@@H]3c4ccc(O)cc4CC[C@H]3[C@@H]1CCC2=O : what was it?
Ans: 0.0

Q: Please share the test call associated with CCCCCCCCOC(=O)c1cc(O)c(O)c(O)c1 .
Ans: 1.0

Hello, the source for this data is PubChem BioAssay (EPA / NIEHS), in case you need it.
